ASSAY SYSTEM: MK-3 (Homo sapiens)
Sequence (Q16644 whole entry, species assumed): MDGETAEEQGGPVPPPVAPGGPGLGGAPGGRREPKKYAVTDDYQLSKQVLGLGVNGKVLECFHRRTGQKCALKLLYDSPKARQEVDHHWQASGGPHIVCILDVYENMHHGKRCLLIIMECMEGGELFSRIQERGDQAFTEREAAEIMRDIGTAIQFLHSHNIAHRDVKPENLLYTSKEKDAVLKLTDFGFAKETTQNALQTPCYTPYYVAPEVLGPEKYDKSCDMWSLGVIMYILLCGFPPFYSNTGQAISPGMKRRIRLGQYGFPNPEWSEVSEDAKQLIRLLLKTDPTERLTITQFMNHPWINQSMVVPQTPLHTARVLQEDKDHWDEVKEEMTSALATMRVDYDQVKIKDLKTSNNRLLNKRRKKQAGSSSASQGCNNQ
ASSAY PROCEDURE: MK-3 inhibition IC50 (similar method to MK-2, with appropriate modifications)
Assay type: biochemical
SETUP CONDITIONS: read-out: MK-3 Avg. IC50
pIC50: −log10 of the molar value.
PARAMETER: pIC50

Worked cases, answers included:
[[record]]
molecule = "CC(C)(C)c1ccc(CCCNCCCn2nc3c(c2C(=O)O)CCc2cnccc2-3)cc1"
assay_system = "MK-3 (Homo sapiens)"
observed_value = 4.94

[[record]]
molecule = "NCCCn1nc2c(c1C(=O)O)CCc1cnc(-c3cccc(C(F)(F)F)c3)cc1-2"
assay_system = "MK-3 (Homo sapiens)"
observed_value = 6.54

[[record]]
molecule = "O=C(O)c1c2c(nn1CCCNCCC(c1ccccc1)c1ccccc1)-c1ccncc1CC2"
assay_system = "MK-3 (Homo sapiens)"
observed_value = 4.52

[[record]]
molecule = "O=C(O)c1c2c(nn1CCCNCCc1ccc(-c3ccccc3C(F)(F)F)cc1)-c1ccncc1CC2"
assay_system = "MK-3 (Homo sapiens)"
observed_value = 4.35

[[record]]
molecule = "O=C1NCCn2nc3c(c21)CCc1cnc(-n2ccnc2)cc1-3"
assay_system = "MK-3 (Homo sapiens)"
observed_value = 5.27

[[record]]
molecule = "N#CC(N)CCn1nc2c(c1C(=O)O)CCc1cnccc1-2 (stereo not drawn)"
assay_system = "MK-3 (Homo sapiens)"
observed_value = 3.73

[[record]]
molecule = "O=C1NCCn2nc3c(c21)CCc1cnc(N2CCC(O)CC2)cc1-3"
assay_system = "MK-3 (Homo sapiens)"
observed_value = 4.64

[[record]]
molecule = "CS(=O)(=O)c1cccc(-c2cc3c(cn2)CCc2c-3nn(CCCN)c2C(=O)O)c1"
assay_system = "MK-3 (Homo sapiens)"
observed_value = 6.34

[[record]]
molecule = "COc1ccc(-c2cc3c(cn2)CCc2c-3nn3c2C(=O)NCCC3)cc1OC"
assay_system = "MK-3 (Homo sapiens)"
observed_value = 4.80

[[record]]
molecule = "N#Cc1cccc(-c2cc3c(cn2)CCc2c-3nn(CCCN)c2C(=O)O)c1"
assay_system = "MK-3 (Homo sapiens)"
observed_value = 6.65


[1] O=C(O)c1c2c(nn1CCCNCCCc1ccc(Cl)cc1)-c1ccncc1CC2
[2] O=C1NCCn2nc3c(c21)CCc1cnc(-c2ccc(O)cc2)cc1-3
[3] O=C(O)c1c2c(nn1CCCNCCc1ccc(Cl)cc1Cl)-c1ccncc1CC2
[4] Nc1ccc(NCCCn2nc3c(c2C(=O)O)CCc2cnccc2-3)cc1
[5] O=C1NCCn2nc3c(c21)CCc1cnc(N2CCSCC2)cc1-3
-- ask Returns the items ordered by pIC50, from maximum to minimum. Answer format: the labels, in the requested order.
-- reply 2, 5, 3, 1, 4
(2: 6.06, 5: 5.48, 3: 5.18, 1: 4.46, 4: 3.88)

[A] COc1ccccc1-c1cc2c(cn1)CCc1c-2nn(CCCN)c1C(=O)O
[B] CC(C)c1cccc(-c2ccc(CCNCCCn3nc4c(c3C(=O)O)CCc3cnccc3-4)cc2)c1
-- ask From the items above, decide which of A and B has the lower pIC50 reading. Refer to your chosen item by its label in the answer.
-- reply B
(B: 4.79, A: 5.16)
